# measured on: T1, cynomolgus monkey E-selectin extracellular domain with 10 His purification tail (cynomolgus monkey, UniProt P16581 22-554 (human entry))
# T1 construct: also called cynomolgus E-selectin; truncated cynomolgus monkey E-selectin
# T1 chain: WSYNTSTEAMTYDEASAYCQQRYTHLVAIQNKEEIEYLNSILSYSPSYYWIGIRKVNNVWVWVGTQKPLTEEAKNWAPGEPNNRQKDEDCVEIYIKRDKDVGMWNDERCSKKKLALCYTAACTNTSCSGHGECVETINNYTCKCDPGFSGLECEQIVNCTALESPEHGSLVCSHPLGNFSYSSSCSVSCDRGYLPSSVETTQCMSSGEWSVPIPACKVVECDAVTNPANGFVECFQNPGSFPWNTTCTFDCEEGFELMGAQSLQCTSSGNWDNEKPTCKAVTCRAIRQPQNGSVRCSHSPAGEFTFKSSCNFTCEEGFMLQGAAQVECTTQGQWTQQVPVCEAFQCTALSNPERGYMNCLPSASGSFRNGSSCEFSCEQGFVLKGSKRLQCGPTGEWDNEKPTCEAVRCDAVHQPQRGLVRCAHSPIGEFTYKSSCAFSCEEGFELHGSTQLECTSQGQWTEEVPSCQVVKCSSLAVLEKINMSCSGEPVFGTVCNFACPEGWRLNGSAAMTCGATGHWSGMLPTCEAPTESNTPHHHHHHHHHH
# procedure summary: SPR, antibody captured, E-selectin analyte
measure name: kon (M⁻¹ s⁻¹)
The answer is to be given in M⁻¹ s⁻¹; state only the numeric part.

**Query** What does the record list as kon for anti-E-selectin antibody 0164 chimera (antibody, human IgG1, kappa, V domains shown, rat VH/VL on effector-null human IgG1 and human kappa) VH: EVQLQQSGAEFGKPGTSVKLSCKVSGYNIRSSYMHWVNQRPGKGLEWIGRIDPANGNTIYAEKFKIKAILTADSSSNTAYMQLSQLKSDDTAIYFCAMDLYSTSEYWGQGVMVTVSS VL: DIQMTQSPSFLSASVGDRVTINCKTSQNINRYLNWYQQKLGEAPKLLIYNANSLQTGIPSRFSASGSGTDFTLTINSLQPEDVATYFCLQDNSWPLTFGSGTKLEIKR ?
**Result** 265000

# credit: patent US20240076386A1
